Biological target: T1, P2-AA-12HAA-T
T1 chain: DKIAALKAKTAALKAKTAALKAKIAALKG
Assay: two-hybrid library CCmax;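 further: natural log of median RNA to DNA barcode read ratio; higher means stronger binding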
Details: mean of both orientations
QUANTITY_KIND: interaction score

• DEIAALEAETAALEAETAALEAEIAALEG [P1-AA-12HAA-T] = 1.56
• DEIAALEAEAAALEAEAAALEAEIAALEG [P1-AA-12HAA-A] = 1.66
• DEIAALEAERAALEAERAALEAEIAALEG [P1-AA-12HAA-R] = 0.243

(1) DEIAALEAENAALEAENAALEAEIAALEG [P1-AA]
(2) DEIAALEAELAALEAELAALEAEIAALEG [P1-AA-12HAA-L]
(3) DEIAALEAEDAALEAEDAALEAEIAALEG [P1-AA-12HAA-D]
## Input Please order the records by their reported interaction score, lowest number first. Enter labels, ranked according to the request.
## Output 3, 1, 2
(3: -1.11, 1: 1.34, 2: 2.1)
